Kindly supply the reported MIC values for the records listed here.
- Test system: Streptococcus pyrogenes 2548 INDUC
- Assay info: In-vitro antimicrobial activity primary screen (agar dilution MIC)
- Assay type: cell-based
- Condition notes: Streptococcus, 2548INDUC, 24 h, BHI agar, 20-24 h
Response body: numeric value in µg/mL, unit text excluded.

Prompt: For the compound CC[C@H]1OC(=O)[C@H](C)[C@@H](O[C@H]2C[C@@](C)(OC)[C@@H](O)[C@H](C)O2)[C@H](C)[C@@H](O[C@@H]2O[C@H](C)C[C@H](N(C)C)[C@H]2O)[C@](C)(OC)C[C@@H](C)[C@@H]2O[C@@]1(C)C(=O)[C@H]2C [Example 28B] , give its measured MIC value.
Response: 3.1

Prompt: For the compound CC[C@H]1OC(=O)[C@H](C)[C@@H](O[C@H]2C[C@@](C)(OC)[C@H](NCc3ccccc3)[C@H](C)O2)[C@H](C)[C@@H](O[C@@H]2O[C@H](C)C[C@H](N(C)C)[C@H]2O)[C@](C)(O)C[C@@H](C)[C@@H]2O[C@@]1(C)C(=O)[C@H]2C , give its measured MIC value.
Response: 3.1
